Experiment: NCI Yeast Anticancer Drug Screen. Data for the sgs1 mgt1 strain (AID 161);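 note: 0% = growth of cultures given vehicle only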
Conditions: S. cerevisiae sgs1 mgt1 strain, at 50.0 µM, hits give high values
Experimental: Growth inhibition of yeast strains with defined genetic alterations is measured as a screen for potential anti-cancer activity. Selected strains with alterations in DNA damage repair or cell cycle control were exposed to compounds and growth inhibition was measured relative to vehicle treated controls. The strain used in this assay is sgs1 mgt1
About 79,000 compounds went through this panel and 15% of them were active in at least one assay; those are over-represented in the sample as a whole.
Answer each item with its documented growth inhibition.
Give bare numbers, in %.

Sample records with growth inhibition:
Summary for this compound, COc1ccc(C(O)/C(=C/n2ccnc2)c2ccccc2)cc1OC (stereo not given) : growth inhibition is -15.6

Summary for this compound, O=C(O)C1Cc2nc[nH]c2CN1CO (stereo not given) : growth inhibition is -19.8

Summary for this compound, CC(C)OC(=O)c1ccc(NCC2=CC(=O)C=CC2=O)cc1 : growth inhibition is 63.5

Hello, I would appreciate it if you could give growth inhibition for each entry below.
1. COC(=O)N/N=C(\C)CC(=O)Nc1ccc(Cl)cc1
2. O=C(NN1C(=O)C(Cl)C1c1ccccc1Cl)c1ccccc1O (stereo not given)
3. CSc1n[nH]c(N)c1C(=O)Nc1ccc(C)cc1
4. C=CCNC(=S)N/C=C\c1c(C(=O)O)cc([N+](=O)[O-])cc1[N+](=O)[O-]
5. O=C1CSSCC(=O)NCCCN1
6. Cc1cnc(Sc2ncccn2)c([N+](=O)[O-])c1
7. CC1(C)C2CC(NC(=O)c3ccc([N+](=O)[O-])cc3)C1C2 (stereo not given)
8. c1ccc(-c2nc3c(N4CCOCC4)ncnc3o2)cc1

1: -28.2; 2: -49.1; 3: 39.5; 4: -31.2; 5: -5.35; 6: -2.1; 7: -1.5; 8: 7.95

Hello, I would appreciate it if you could give growth inhibition for each entry below.
1. NC(=O)NC(CCl)NC(N)=O
2. O=C1c2cc3c(cc2C(=O)c2ncccc21)CCCC3
3. CC(C)CC(=O)Cc1nc2n(c1O)C(=N)N=N2
4. COc1ccc2nc3cc(Cl)ccc3c(Sc3ccc(NC(C)=O)cc3)c2c1
5. CN(C)c1nc(N)c2ccc(Cl)cc2n1
6. CCOC(=O)[C@H](Cc1ccccc1)NC(=O)c1nc[nH]c1[N+](=O)[O-]
7. O=C(NC1CCCCC1)NC12CC3CC(CC(F)(C3)C1)C2

1. -2.05
2. 62.1
3. -14.2
4. -2.5
5. -7.15
6. -31.1
7. -7.55

Hello, I would appreciate it if you could give growth inhibition for each entry below.
1. CC(C)CCCC(C)C1CCC2(C)C3=C(CCC12C)C1(C)Cc2nonc2C(C)(C)C1CC3 (stereo not given)
2. CCCCCCCCCCCCP(=O)(O)O
3. Cc1ccccc1C(=O)c1ccccc1Cc1cccc2ccccc12

1: 3.3; 2: -19.9; 3: -10.2
